test system: nvGluCl‐1 (nvpLGIC‐1); experiment: Two-electrode voltage clamp of Xenopus oocytes expressing nvGluCl‐1 (nvpLGIC‐1); type: cell-based, Nematostella vectensis; conditions: read-out: EC50, half‐maximal activation; TEVC, holding potential −70 mV, His‐tagged version
MEASURE_NAME: pEC50
Recall that pEC50 is obtained by taking minus log10 of the concentration measured in molar.

Q: Recall and state the measured pEC50 for N[C@@H](CCC(=O)O)C(=O)O [glutamate] .
Result: 4.80

Values from paper PMC13335744
